Reference source for all entries: patent US8178548B2

Tested on: genotype 1b-Con1 subgenomic replicon cell line
procedure_text: HCV Polymerase Replicon Assay, genotype 1b-Con1 (luciferase reporter)
Format: cell-based
recorded_conditions: Hepatitis C virus, 72 h, read-out: EC50 1b
pEC50: −log10 of the molar value.
measured_endpoint: pEC50

• COc1c(/C=C/c2ccc(F)cc2)cc(N2CCC(=O)NC2=O)cc1C(C)(C)C = 6.00 to 7.00
• CO/C(=C\c1cc(N2CCC(=O)NC2=O)cc(C(C)(C)C)c1OC)c1ccc(NS(C)(=O)=O)cc1 = 7.00 to 8.00
• COc1c(/C=C/c2ccc(NS(C)(=O)=O)cc2)cc(-n2ccc(=O)[nH]c2=O)cc1C(C)(C)C = > 8.00
• COc1c(/C=C\c2ccc(NS(C)(=O)=O)cc2)cc(N2CCC(=O)NC2=O)cc1C(C)(C)C = 7.00 to 8.00
• COc1c(/C=C/c2ccc(NS(C)(=O)=O)cc2)cc(N2CCC(=O)NC2=O)cc1C(C)(C)C = > 8.00
• COc1c(/C=C/c2ccc(NS(C)(=O)=O)c(F)c2)cc(-n2ccc(=O)[nH]c2=O)cc1C(C)(C)C = > 8.00
• COc1c(/C=C/c2cc(F)c(NS(C)(=O)=O)cc2C)cc(-n2ccc(=O)[nH]c2=O)cc1C(C)(C)C = > 8.00
• COc1ccc(/C=C/c2cc(N3CCC(=O)NC3=O)cc(C(C)(C)C)c2OC)cc1 = < 6.00
• CCOC(=O)c1cc(NS(C)(=O)=O)ccc1/C=C/c1cc(-n2ccc(=O)[nH]c2=O)cc(C(C)(C)C)c1OC = > 8.00
• COCCN(C)C(=O)c1cc(NS(C)(=O)=O)ccc1/C=C/c1cc(-n2ccc(=O)[nH]c2=O)cc(C(C)(C)C)c1OC = > 8.00
• COc1c(/C=C/c2ccc(NS(C)(=O)=O)cc2C(N)=O)cc(-n2ccc(=O)[nH]c2=O)cc1C(C)(C)C = > 8.00
• COc1c(/C=C(/F)c2ccc(NS(C)(=O)=O)cc2)cc(N2CCC(=O)NC2=O)cc1C(C)(C)C = > 8.00
• COc1c(/C=C/c2ccc(NS(C)(=O)=O)cc2C(=O)N2CCCC2)cc(-n2ccc(=O)[nH]c2=O)cc1C(C)(C)C = > 8.00
• COc1c(/C=C/c2ccc(NS(C)(=O)=O)cc2C=O)cc(-n2ccc(=O)[nH]c2=O)cc1C(C)(C)C = > 8.00
• COc1c(/C=C(\C)c2ccc([N+](=O)[O-])cc2)cc(N2CCC(=O)NC2=O)cc1C(C)(C)C = < 6.00
• CC(C)(C)c1cc(/C=C/c2ccc(NS(C)(=O)=O)cc2)cc(N2CCC(=O)NC2=O)c1 = 7.00 to 8.00
• COc1c(/C=C/c2ccc(N(C(C)=O)S(C)(=O)=O)cc2)cc(N2CCC(=O)NC2=O)cc1C(C)(C)C = > 8.00
• COc1c(/C=C/c2ccccc2)cc(N2CCC(=O)NC2=O)cc1C(C)(C)C = 6.00 to 7.00
• COc1c(/C=C/c2ccc(NS(C)(=O)=O)cc2NC(=O)OC(C)(C)C)cc(-n2ccc(=O)[nH]c2=O)cc1C(C)(C)C = 7.00 to 8.00
• COc1c(/C=C/c2ccc(N)cc2)cc(N2CCC(=O)NC2=O)cc1C(C)(C)C = 6.00 to 7.00
• COc1c(/C=C/c2ccc(NS(C)(=O)=O)cc2CN2CCCC2)cc(-n2ccc(=O)[nH]c2=O)cc1C(C)(C)C = 7.00 to 8.00
• COc1c(/C=C/c2ccc(NS(C)(=O)=O)cc2CNCCC(C)C)cc(-n2ccc(=O)[nH]c2=O)cc1C(C)(C)C = < 6.00
• COc1c(/C=C/c2ccc(NS(C)(=O)=O)cc2C(=O)O)cc(-n2ccc(=O)[nH]c2=O)cc1C(C)(C)C = > 8.00
• COc1c(/C=C/c2ccc(NS(C)(=O)=O)c(F)c2)cc(N2CCC(=O)NC2=O)cc1C(C)(C)C = 7.00 to 8.00
• COc1c(/C=C(\Cl)c2ccc([N+](=O)[O-])cc2)cc(N2CCC(=O)NC2=O)cc1C(C)(C)C = < 6.00
• COc1c(/C=C/c2ccc(NS(C)(=O)=O)cc2C(=O)N(C)C2CCS(=O)(=O)C2)cc(-n2ccc(=O)[nH]c2=O)cc1C(C)(C)C (centres unmarked) = 7.00 to 8.00
• COc1c(/C=C/c2ccc(NS(C)(=O)=O)cc2COC(C)C)cc(-n2ccc(=O)[nH]c2=O)cc1C(C)(C)C = > 8.00
• CNC(=O)c1cc(NS(C)(=O)=O)ccc1/C=C/c1cc(-n2ccc(=O)[nH]c2=O)cc(C(C)(C)C)c1OC = > 8.00
• COc1c(/C=C\c2ccc(NS(C)(=O)=O)cc2)cc(-n2ccc(=O)[nH]c2=O)cc1C(C)(C)C = > 8.00

====

test_system: HCV polymerase 1A (Δ21 NS5B, H77) (Hepatitis C virus genotype 1a)
Construct: 20 to 50 nM Δ21 NS5B
Sequence (P27958 2421-2990, stated change not applied): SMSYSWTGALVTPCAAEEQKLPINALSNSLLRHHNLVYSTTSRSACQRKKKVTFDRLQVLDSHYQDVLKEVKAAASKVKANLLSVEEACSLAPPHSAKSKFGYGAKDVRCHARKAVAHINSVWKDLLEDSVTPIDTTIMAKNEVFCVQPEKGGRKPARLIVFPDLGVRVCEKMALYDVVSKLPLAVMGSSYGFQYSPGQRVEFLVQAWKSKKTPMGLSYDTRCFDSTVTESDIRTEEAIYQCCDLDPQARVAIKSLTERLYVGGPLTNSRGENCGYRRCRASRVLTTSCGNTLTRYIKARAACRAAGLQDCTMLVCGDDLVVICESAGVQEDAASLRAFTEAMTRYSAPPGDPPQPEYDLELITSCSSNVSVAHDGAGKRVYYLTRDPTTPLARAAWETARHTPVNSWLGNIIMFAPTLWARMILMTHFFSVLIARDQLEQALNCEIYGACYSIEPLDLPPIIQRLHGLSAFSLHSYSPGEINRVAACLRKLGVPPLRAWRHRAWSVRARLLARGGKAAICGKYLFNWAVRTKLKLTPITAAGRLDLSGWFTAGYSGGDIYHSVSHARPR
procedure_text: biochemical
pIC50: −log10 of the molar value.
measured_endpoint: pIC50

* COc1c(/C=C/c2ccc(NS(C)(=O)=O)cc2)cc(-n2ccc(=O)[nH]c2=O)cc1-c1cccs1 | 7.00 to 8.00
* COCCNC(=O)c1cc(NS(C)(=O)=O)ccc1/C=C/c1cc(-n2ccc(=O)[nH]c2=O)cc(C(C)(C)C)c1OC | > 8.00
* COc1c(/C=C/c2ccc(NS(C)(=O)=O)cc2)cc(-n2ccc(=O)[nH]c2=O)cc1-c1ccsc1 | 7.00 to 8.00
* COC(=O)c1cc(NS(C)(=O)=O)ccc1CCc1cc(-n2ccc(=O)[nH]c2=O)cc(C(C)(C)C)c1OC | > 8.00
* COc1c(/C=C/c2ccc(NS(C)(=O)=O)cc2C(=O)N2CCCC2)cc(-n2ccc(=O)[nH]c2=O)cc1C(C)(C)C | 7.00 to 8.00
* COc1c(/C=C/c2ccc([N+](=O)[O-])cc2)cc(N2CCC(=O)NC2=O)cc1C(C)(C)C | 6.00 to 7.00
* COc1c(/C=C/c2ccc(NS(C)(=O)=O)cc2CN2CC(O)C2)cc(-n2ccc(=O)[nH]c2=O)cc1C(C)(C)C | 7.00 to 8.00
* COc1c(/C=C(\C)c2ccc(NS(C)(=O)=O)cc2)cc(N2CCC(=O)NC2=O)cc1C(C)(C)C | > 8.00
* COc1c(/C=C/c2ccc(NS(C)(=O)=O)cc2C(=O)N(C)C)cc(-n2ccc(=O)[nH]c2=O)cc1C(C)(C)C | > 8.00
* CC(C)(C)c1cc(-n2ccc(=O)[nH]c2=O)cc(/C=C/c2ccc(NS(C)(=O)=O)cc2)c1Cl | > 8.00
* COc1c(/C=C/c2ccc(F)cc2)cc(N2CCC(=O)NC2=O)cc1C(C)(C)C | 6.00 to 7.00
* COc1c(/C=C/c2ccc(N)cc2)cc(N2CCC(=O)NC2=O)cc1C(C)(C)C | 6.00 to 7.00
* COc1c(/C=C(\C)c2ccc([N+](=O)[O-])cc2)cc(N2CCC(=O)NC2=O)cc1C(C)(C)C | < 6.00
* CCOc1c(/C=C/c2ccc(NS(C)(=O)=O)cc2)cc(-n2ccc(=O)[nH]c2=O)cc1C(C)(C)C | 7.00 to 8.00
* COc1c(C=C(F)c2ccc(NS(C)(=O)=O)cc2)cc(N2CCC(=O)NC2=O)cc1C(C)(C)C (racemic) | 7.00 to 8.00

====

test_system: HCV polymerase 1B (Δ21 NS5B, HCV Strain 1B BK) (Hepatitis C virus genotype 1b)
Construct: 20 to 50 nM Δ21 NS5B
Sequence (P26663 2420-2989, stated change not applied): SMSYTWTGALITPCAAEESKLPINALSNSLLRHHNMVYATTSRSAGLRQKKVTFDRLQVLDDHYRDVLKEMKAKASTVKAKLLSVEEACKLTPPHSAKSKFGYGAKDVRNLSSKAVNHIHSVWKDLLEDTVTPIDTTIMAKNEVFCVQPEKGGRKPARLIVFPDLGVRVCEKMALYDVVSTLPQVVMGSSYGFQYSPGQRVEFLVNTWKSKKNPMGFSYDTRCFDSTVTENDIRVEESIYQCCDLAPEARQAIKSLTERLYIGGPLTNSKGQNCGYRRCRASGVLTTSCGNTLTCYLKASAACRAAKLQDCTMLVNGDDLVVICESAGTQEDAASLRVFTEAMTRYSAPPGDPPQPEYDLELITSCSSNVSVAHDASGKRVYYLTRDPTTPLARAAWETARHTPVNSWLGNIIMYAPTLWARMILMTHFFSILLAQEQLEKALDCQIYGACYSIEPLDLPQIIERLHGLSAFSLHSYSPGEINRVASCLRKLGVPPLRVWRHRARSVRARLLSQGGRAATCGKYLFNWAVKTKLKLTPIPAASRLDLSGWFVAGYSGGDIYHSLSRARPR
procedure_text: biochemical
List of IC50 values.
measured_endpoint: IC50

- COc1c(CCc2ccc(NS(C)(=O)=O)cc2)cc(-n2ccc(=O)[nH]c2=O)cc1C(C)(C)C: 0.01 to 0.1 µM
- COc1c(/C=C(/F)c2ccc(NS(C)(=O)=O)cc2)cc(N2CCC(=O)NC2=O)cc1C(C)(C)C: 0.01 to 0.1 µM
- COc1c(/C=C/c2ccc(NS(C)(=O)=O)cc2)cc(-n2ccc(=O)[nH]c2=O)cc1C(C)(C)C: < 0.01 µM
- CO/C(=C\c1cc(N2CCC(=O)NC2=O)cc(C(C)(C)C)c1OC)c1ccc(NS(C)(=O)=O)cc1: 0.01 to 0.1 µM
- CC(C)(C)c1cc(CCc2ccc(NS(C)(=O)=O)cc2)cc(N2CCC(=O)NC2=O)c1: 0.01 to 0.1 µM
- COc1c(/C=C/c2ccc(NS(C)(=O)=O)cc2COC(C)C)cc(-n2ccc(=O)[nH]c2=O)cc1C(C)(C)C: 0.01 to 0.1 µM
- COc1c(Br)cc(-n2ccc(=O)[nH]c2=O)cc1/C=C/c1ccc(NS(C)(=O)=O)cc1: 0.1 to 1 µM
